# targetOrTestSystem: T1, human Claudin 3 (human, UniProt O15551 1-220)
# T1 construct: forced expression in DG44 or Ba/F3 cells, or endogenous on MCF7 cells; four-transmembrane tight junction protein; also called hCLDN3; hCLN3
# T1 sequence: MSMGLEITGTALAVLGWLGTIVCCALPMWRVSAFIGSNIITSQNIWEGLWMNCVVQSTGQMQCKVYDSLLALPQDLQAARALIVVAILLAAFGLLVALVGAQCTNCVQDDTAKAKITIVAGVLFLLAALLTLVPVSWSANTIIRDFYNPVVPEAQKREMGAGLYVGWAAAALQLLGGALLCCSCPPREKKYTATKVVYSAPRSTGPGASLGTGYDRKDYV
# experimentalDetails: flow cytometry, MCF7 cells (endogenous Claudin 3), 1 ug/mL antibody
measurementKind: X geometric mean
Numbers only.

Previously resolved entries follow.
CDN04 (antibody, mouse IgG1, kappa, V domains shown, mouse monoclonal, IgG1/IgK; also called CDN4) VH: EVQLQQSGPELVKPGASMKISCKASGYSFTGYTMNWMKQGHGKNLEWIGLINPYNGGTSYNQKFKDKATLTLDKSSSSAYMELLSLTSEDSAVYYCARGSYGSSYFDYWGQGTTLTVSS VL: DIVMSQSPSSLAVSVGEKVTMSCKSSQSLLYGSNQKNYLAWYQQKPGQSPKLLIYWASTRESGVPDRFTGSGSGTDFTLTISSVKAEDLAVYYCQQYYNFPYTFGGGTKLEIKR : 47
CDN16 (antibody, mouse IgG2b, kappa, V domains shown, mouse monoclonal, IgG2b/IgK) VH: EVQLQQSGPELVKPGASVKMSCKASGYTFTDYYMNWVKQSHGKSLEWIGRVNPSNGGTSYNQKFKGKATLTVDKSLSTAYMQLNSLTSEDSAVYYCARGLAYYSNSFVYWGQGTLVTVSA VL: KIVLTQSPASLAVSLRQRATISCRASESVDSYGNSFMHWYQQKPGQPPKLLIYRASNLESGVPARFSGSGSRTDFTLTIDPVEADDAATYYCQQNNEDPWTFGGGTKLEIKR : 125

Please find the next binder below.
[in] Which X geometric mean is reported for this binder? CDN27 (antibody, V domains shown, mouse monoclonal, IgG2a/IgK) VH: EVQLQQSGPELVKPGASVKISCKASGYSFTGYFMNWVKQSHGKSLEWIGRINPYNGDTFYNQKFKGKATLTVDKSSSTAHMELRSLTSEDSAVYYCARSGDWYFDVWGAGTTVTVSS VL: DIVLTQSPASLAVSLGQRATISCRASKSVSTSSYSYMHWYQQKPGQPPKLLIKFASYLESGVPARFSGSGSGTDFTLNIHPVEEEDAATYYCQHSREFPRTFGGGTKLEIKR
[out] 202

The reported numbers originate from patent US20100111852A1.
